Answer each item with its documented Activity.
# Tested on: Pseudomonas aeruginosa
# protocol: Antibiofilm activity against Pseudomonas aeruginosa PAO1 in ABTGC medium assessed as biofilm biomass at MIC incubated for 24 hrs by crystal violet staining based assay relative to control
# Format: functional
Reply with just the number (in %).

Query :: # value lookup — system Pseudomonas aeruginosa, readout Activity, item O=C(O)c1cn(C2CC2)c2cc(N3CCNCC3)c(F)cc2c1=O
Result :: 109.5

Query :: Can you check Cc1cc(=O)c(O)cn1CCCNC(=O)CCC(=O)N1CCN(c2cc3c(cc2F)c(=O)c(C(=O)O)cn3C2CC2)CC1 next?
Result :: 92.1

Query :: Can you check Cc1cc(=O)c(O)cn1CCCn1cc(CCC(=O)N2CCN(c3cc4c(cc3F)c(=O)c(C(=O)O)cn4C3CC3)CC2)nn1 next?
Result :: 71.7

Query :: Can you check O=C(CCC(=O)N1CCN(c2cc3c(cc2F)c(=O)c(C(=O)O)cn3C2CC2)CC1)NCc1ccccc1 next?
Result :: 218.8

Query :: Can you check Cc1cc(=O)c(O)c(CNC(=O)CCC(CCC(=O)NCc2c(O)c(=O)cc(C)n2C)(CCC(=O)NCc2c(O)c(=O)cc(C)n2C)NC(=O)CCC(=O)N2CCN(c3cc4c(cc3F)c(=O)c(C(=O)O)cn4C3CC3)CC2)n1C next?
Result :: 20.7

Query :: Can you check Cc1cc(=O)c(O)c(CNC(=O)CCC(CCC(=O)NCc2c(O)c(=O)cc(C)n2C)(CCC(=O)NCc2c(O)c(=O)cc(C)n2C)NC(=O)CCCCC(=O)N2CCN(c3cc4c(cc3F)c(=O)c(C(=O)O)cn4C3CC3)CC2)n1C next?
Result :: 15.1
